# study.system: T1, cyno CLDN6 (cyno)
# T1 construct: whole, on cells; also called cynomolgus CLDN6
# protocol.notes: flow cytometry, HEK293T-cyno-CLDN6 cells; ratio to chBG87P

| binder | FACS Emax ratio to BG87P |
| --- | --- |
| BG87P-34 (antibody, V domains shown, Final lead anti-CLDN6 clone (IGHV3-23 / IGKV1-39 framework); also called BG87-34) VH: EVQLQESGGGLVQPGGSLRLSCAASGYSFSDYHINWVRQAPGKGLEWVGYIYPGSGHTKYNEKFKGRFTISRDTSSNTAYLQMNSLRAEDTAVYYCARSGIYHYVSSYYFDHWGQGTLVTVSS VL: DIQMTQSPSSLSASVGDRVTITCKASQDAGSAVAWYQQKPGKAPKLLIYWASTRHTGVPSRFSGSGSGTDFTLTISSLQPEDFATYYCQQYSSYTFGGGTKLEIK | 1 |
| BG87P-33 (antibody, V domains shown, Framework-swapped variant; also called BG87-33) VH: EVQLQESGGGLVQPGGSLRLSCAASGYSFTDYHINWVRQAPGKGLEWVSYIYPGSGHTKYNEKFKGRFTISRDTSKNTAYLQMNSLRAEDTAVYYCARSGIYHYVSSYYFDHWGQGTLVTVSS VL: DIQMTQSPSTLSASVGDRVTITCKASQDAGSAVAWYQQKPGKAPKLLIYWASTRHTGVPSRFSGSGSGTEFTLTISSLQPDDFATYYCQQYSSYTFGGGTKVEIK | 0.75 |
| BG87P-21 (antibody, V domains shown, 2nd round humanized variant) VH: QVQLVQSGAEVKKPGASVKVSCKASGYSFTDYHINWVRQAPGQRLEWMGWIYPGSGYTKYNEKFKGRVTITRDTSASTAYMELSSLRSEDTAVYYCARSGIYHYVSSYYFDHWGKGTTVTVSS VL: DIQMTQSPSTLSASVGDRVTITCKASQDVGTAVAWYQQKPGKAPKLLIYWASTRHTGVPSRFSGSGSGTEFTLTISSLQPDDFATYYCQQYSSYTFGGGTKVEIK | 0.8 |
